Biological target: G-protein coupled receptor 68 (Homo sapiens)
Assay: Binding affinity to GPR68 expressed in human HEK293T cells assessed as cAMP production in presence of H+ proton by Split-luciferase based luminescence counter analysis
Format: cell-based
Settings: filed as positive allosteric modulator
ENDPOINT_NAME: pKb
Number only, please.

{"COMPOUND_SMILES": "Nc1nc(-c2ccc(Cl)c(Cl)c2)c(-c2ccncc2)s1", "VAL": 7.51}
{"COMPOUND_SMILES": "Nc1nc(NCCc2ccccc2)nc(-c2ccccc2CO)n1", "VAL": 5.43}
{"COMPOUND_SMILES": "Nc1nc(NCc2ccccc2)nc(-c2ccc(CO)cc2)n1", "VAL": 4.93}

Look up and report measured pKb for this entry: `Nc1nc(NCc2cccc(F)c2)nc(-c2cccc(F)c2N)n1`
3.88

Identify measured pKb corresponding to `Nc1nc(NCCCc2ccccc2)nc(-c2ccccc2CO)n1`
5.75

Supply pKb value. Item: `CCCCNc1c(C(=O)OCC)c(C)nc2c1cnn2CC`
5.2

Consider the compound `Nc1nc(NCc2ccccc2F)nc(-c2ccc(F)cc2N)n1` . State its measured pKb.
4.23

Return reported pKb. Input compound: `O=C1N[C@H](c2cccc([N+](=O)[O-])c2)c2c(-c3ccco3)n[nH]c21`
4.42

Indicate its recorded pKb; the compound in question is `Nc1nc(NCc2cccc(F)c2)nc(-c2cc(F)c(F)cc2N)n1`
4.66

Please report pKb for the following compound: `Nc1nc(NCc2cccc(F)c2)nc(-c2ccc(F)cc2N)n1`
3.68

Answer with the recorded pKb of `COc1ccc(CNc2nc(N)nc(-c3ccccc3CO)n2)cc1` only.
4.35

====

Target: G-protein coupled receptor 68 (Homo sapiens, UniProt Q15743)
Sequence (Q15743 whole entry): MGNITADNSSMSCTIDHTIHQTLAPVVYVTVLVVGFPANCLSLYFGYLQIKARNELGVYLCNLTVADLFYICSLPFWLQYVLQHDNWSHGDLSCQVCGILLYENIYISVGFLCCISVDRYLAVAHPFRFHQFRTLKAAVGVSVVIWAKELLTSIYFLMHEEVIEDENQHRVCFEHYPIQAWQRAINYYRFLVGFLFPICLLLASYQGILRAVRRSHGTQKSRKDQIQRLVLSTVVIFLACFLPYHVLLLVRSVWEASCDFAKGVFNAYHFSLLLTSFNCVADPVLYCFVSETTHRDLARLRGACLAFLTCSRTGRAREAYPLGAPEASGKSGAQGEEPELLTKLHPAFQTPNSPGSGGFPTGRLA
Assay: Positive allosteric modulator activity at GPR68 expressed in human HEK293T cells assessed as cAMP production in presence of H+ proton by Split-luciferase based luminescence counter analysis (reference value: 6.53 to 6.72)
ENDPOINT_NAME: pEC50
Recall that pEC50 is obtained by taking minus log10 of the concentration measured in molar.

{"COMPOUND_SMILES": "Nc1nc(NCc2ccccc2)nc(-c2ccccc2N)n1", "pEC50": 7.20}
{"COMPOUND_SMILES": "Nc1nc(NCc2ccccc2)nc(-c2ccc(F)c(F)c2)n1", "pEC50": 7.04}

Fill in pEC50 for record `COc1cc([C@H]2NC(=O)c3[nH]nc(-c4ccco4)c32)ccc1O`
6.80

Determine from records and report pEC50 for `Nc1nc(NCc2ccccc2)nc(-c2cccc(CO)c2)n1`
6.80
